Sourced from patent US5935954A

# log10(Ki) measurements, system: FKBP12 (Homo sapiens, UniProt P62942)
# Sequence (P62942 whole entry, species assumed): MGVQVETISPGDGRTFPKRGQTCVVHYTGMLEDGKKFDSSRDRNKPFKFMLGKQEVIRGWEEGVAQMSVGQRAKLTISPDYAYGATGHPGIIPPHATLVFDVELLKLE
// units: nM (pre-log); metric: Ki; scale: log10

C=CCC/C=C(/c1cccnc1)c1ccc([C@H](CCN2CCOCC2)OC(=O)[C@@H]2CCCCN2C(=O)C(=O)c2cc(COC)ccc2C)s1 [Compound 101] | 2.70
CC/C=C(/c1cccnc1)c1cccc([C@H](CCCc2ccccc2)OC(=O)[C@@H]2CCCCN2C(=O)C(=O)c2cc(OC)c(OC)c(OC)c2)c1 [Compound 28] | 1.30
C=CCC/C=C(\c1ccc([C@@H](CCN2CCOCC2)OC(=O)[C@@H]2CCCCN2C(=O)C(=O)C2(O)CCCCC2)s1)C1CCOCC1 [Compound 95] | 1.15
CCC/C=C(/c1cccnc1)c1cccc([C@H](CCCc2ccccc2)OC(=O)[C@@H]2CCCCN2C(=O)C(=O)c2cc(OC)c(OC)c(OC)c2)c1 [Compound 16] | 3.52
CCCCc1ccc(C)n1-c1cccc([C@@H](CCN2CCOCC2)OC(=O)[C@@H]2CCCCN2C(=O)C(=O)[C@@H]2C[C@H](OCC)CC[C@H]2C)c1 [Compound 121] | 1.93
CCOCc1cccc(COCC)c1-c1ccc([C@@H](CCN2CCOCC2)OC(=O)[C@@H]2CCCCN2C(=O)C(=O)c2cc(COC)ccc2C)s1 [Compound 102] | 2.85
CCCCc1ccc(C)n1-c1cccc([C@@H](CCN2CCOCC2)OC(=O)[C@@H]2CCCCN2C(=O)C(=O)[C@@H]2C[C@H](C(C)(C)OC)CC[C@H]2C)c1 [Compound 112] | 2.97
CCOCc1cccc(COCC)c1-c1cncc([C@@H](CCN2CCOCC2)OC(=O)[C@@H]2CCCCN2C(=O)C(=O)CC(C)C)c1 [Compound 73] | 2.86

Now look at this entry.
Output reported log10(Ki) of the compound COC/C=C(\c1cncc([C@H](OC(=O)[C@@H]2CCCCN2C(=O)C(=O)c2ccco2)/C(C)=C/[C@H]2CC[C@H](O)CC2)c1)C1CCCCC1 [Compound 47] on FKBP12 (Homo sapiens, UniProt P62942).
1.92

----------
# target: FKBP12 (Homo sapiens)
readout.label: Ki (µM)
Please respond with the number in µM and leave the unit unwritten.

Example entries and their recorded answers appear below.
CCCCc1ccc(C)n1-c1cccc([C@@H](CCN2CCOCC2)OC(=O)[C@@H]2CCCCN2C(=O)C(=O)[C@@H]2CCCC[C@H]2C)c1 [Compound 120] | 0.08
CCOc1ccc(OCC)c(-c2cncc([C@@H](CCCc3ccccc3)OC(=O)[C@@H]3CCCCN3C(=O)C(=O)c3cc(OC)c(OC)c(OC)c3)c2)c1 [Compound 10] | 0.016

Now look at this entry.
Return value of Ki for input CCCc1ccc(CCC)n1-c1cccc([C@H](OC(=O)[C@@H]2CCCCN2C(=O)C(=O)C(C)(C)C(C)C)/C(C)=C/c2ccncc2)c1 [Compound 106] , no commentary.
2.1

----------
# Tested on: L1210 mouse leukemia cells transformed with the pHaMDR1/A retrovirus carrying a MDR1 cDNA
# measurement.description: cells
# Assay type: cell-based
# condition.label: Date 5/12/95; IC50 Dox / IC50 Dox+Inhibitor; 2.5 μM compound
# Experimental: To assay the ability of the compounds according to this invention to increase the antiproliferative activity of a drug, cell lines which are known to be resistant to a particular drug may be used. […] The cell line is exposed to the drug to which it is resistant, or to the test compound; cell viability is then measured and compared to the viability of cells which are exposed to the drug in the presence of the test compound. […]
readout.label: MDR Ratio
// return a plain number; no unit text

C=CCC/C=C(/c1cccnc1)c1ccc([C@@H](OC(=O)[C@@H]2CCCCN2C(=O)C(=O)C(C)(C)C)/C(C)=C/C2CCN(C)CC2)s1 [Compound 52] | 4.1
CCC/C=C(/c1cccnc1)c1cccc([C@H](CCN2CCOCC2)OC(=O)[C@@H]2CCCCN2C(=O)C(=O)c2cc(OC)c(OC)c(OC)c2)c1 [Compound 27] | 12.7
CCCc1ccc(CCC)n1-c1cccc([C@@H](CCN2CCOCC2)OC(=O)[C@@H]2CCCCN2C(=O)C(=O)[C@@H]2CCCC[C@H]2C)c1 [Compound 105] | 5.4
COC/C=C(\c1cncc([C@@H](OC(=O)[C@@H]2CCCCN2C(=O)C(=O)CC(C)C)/C(C)=C/[C@H]2CC[C@H](O)CC2)c1)C1CCCCC1 [Compound 59] | 10.8
CCOCc1cccc(COCC)c1-c1cncc(C(CCN2CCOCC2)OC(=O)[C@@H]2CCCCN2C(=O)C(=O)C(C)(C)C(C)C)c1 (stereo partly drawn) [Compound 89] | 5.0

Now look at this entry.
Return value of MDR Ratio for input COc1cc(C(=O)C(=O)N2CCCC[C@H]2C(=O)O[C@H](/C(C)=C/[C@H]2CC[C@H](O)CC2)c2cncc(-c3c(OC)cccc3OC)c2)cc(OC)c1OC [Compound 32] , no commentary.
11.7
